System: Escherichia coli
METHOD DESCRIPTION: Antibacterial activity against Escherichia coli after 48 hrs by agar dilution method
Type: functional
Below is a list of entries, each paired with its recorded MIC value.

{"CPD SMILES": "C=C[C@]1(C)C[C@@H](OC(=O)CSc2nnc(NC(=O)CN3CCOCC3)s2)[C@]2(C)[C@H](C)CC[C@]3(CCC(=O)[C@H]32)[C@@H](C)[C@@H]1O", "MIC": "≥ 64 µg/mL"}
{"CPD SMILES": "C=C[C@]1(C)C[C@@H](OC(=O)CSc2nnc(NC(=O)c3ccc(Cl)cc3)s2)[C@]2(C)[C@H](C)CC[C@]3(CCC(=O)[C@H]32)[C@@H](C)[C@@H]1O", "MIC": "≥ 64 µg/mL"}
{"CPD SMILES": "C=C[C@]1(C)C[C@@H](OC(=O)CSc2nnc(NC(=O)c3cccc(OC)c3)s2)[C@]2(C)[C@H](C)CC[C@]3(CCC(=O)[C@H]32)[C@@H](C)[C@@H]1O", "MIC": "≥ 64 µg/mL"}

---

# reported zone of inhibition at 320 µg/mL; entries follow
Test system: Streptococcus agalactiae
METHOD DESCRIPTION: Antibacterial activity against Streptococcus agalactiae at 320 ug/ml after 24 hrs by Oxford cup assay
Format: functional
EXPERIMENTAL PARAMETERS: read-out: IZ
ASSAY ENDPOINT: zone of inhibition at 320 µg/mL (mm)

{"MOLECULE": "C=C[C@]1(C)C[C@@H](OC(=O)CSc2nnc(NC(=O)c3ccc(N)cc3)s2)[C@]2(C)[C@H](C)CC[C@]3(CCC(=O)[C@H]32)[C@@H](C)[C@@H]1O", "SYSTEM": "Streptococcus agalactiae", "REPORTED MEASUREMENT": 14}
{"MOLECULE": "C=C[C@]1(C)C[C@@H](OC(=O)CSc2nnc(NC(=O)c3ccccc3OC)s2)[C@]2(C)[C@H](C)CC[C@]3(CCC(=O)[C@H]32)[C@@H](C)[C@@H]1O", "SYSTEM": "Streptococcus agalactiae", "REPORTED MEASUREMENT": 13.4}
{"MOLECULE": "CC[C@]1(C)C[C@@H](OC(=O)CSc2nnc(N)[nH]2)[C@]2(C)[C@H](C)CC[C@]3(CCC(=O)[C@H]32)[C@@H](C)[C@@H]1O [AZAMULIN]", "SYSTEM": "Streptococcus agalactiae", "REPORTED MEASUREMENT": 18.9}
{"MOLECULE": "C=C[C@]1(C)C[C@@H](OC(=O)CSc2nnc(NC(=O)c3cccc(OC)c3)s2)[C@]2(C)[C@H](C)CC[C@]3(CCC(=O)[C@H]32)[C@@H](C)[C@@H]1O", "SYSTEM": "Streptococcus agalactiae", "REPORTED MEASUREMENT": 12.8}
